target: human ether-à-go-go-related gene (hERG) potassium channel (human, UniProt Q12809);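 further: peak tail current of the secondary pulse compared with the same well before compound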
Sequence (Q12809 whole entry, looked up): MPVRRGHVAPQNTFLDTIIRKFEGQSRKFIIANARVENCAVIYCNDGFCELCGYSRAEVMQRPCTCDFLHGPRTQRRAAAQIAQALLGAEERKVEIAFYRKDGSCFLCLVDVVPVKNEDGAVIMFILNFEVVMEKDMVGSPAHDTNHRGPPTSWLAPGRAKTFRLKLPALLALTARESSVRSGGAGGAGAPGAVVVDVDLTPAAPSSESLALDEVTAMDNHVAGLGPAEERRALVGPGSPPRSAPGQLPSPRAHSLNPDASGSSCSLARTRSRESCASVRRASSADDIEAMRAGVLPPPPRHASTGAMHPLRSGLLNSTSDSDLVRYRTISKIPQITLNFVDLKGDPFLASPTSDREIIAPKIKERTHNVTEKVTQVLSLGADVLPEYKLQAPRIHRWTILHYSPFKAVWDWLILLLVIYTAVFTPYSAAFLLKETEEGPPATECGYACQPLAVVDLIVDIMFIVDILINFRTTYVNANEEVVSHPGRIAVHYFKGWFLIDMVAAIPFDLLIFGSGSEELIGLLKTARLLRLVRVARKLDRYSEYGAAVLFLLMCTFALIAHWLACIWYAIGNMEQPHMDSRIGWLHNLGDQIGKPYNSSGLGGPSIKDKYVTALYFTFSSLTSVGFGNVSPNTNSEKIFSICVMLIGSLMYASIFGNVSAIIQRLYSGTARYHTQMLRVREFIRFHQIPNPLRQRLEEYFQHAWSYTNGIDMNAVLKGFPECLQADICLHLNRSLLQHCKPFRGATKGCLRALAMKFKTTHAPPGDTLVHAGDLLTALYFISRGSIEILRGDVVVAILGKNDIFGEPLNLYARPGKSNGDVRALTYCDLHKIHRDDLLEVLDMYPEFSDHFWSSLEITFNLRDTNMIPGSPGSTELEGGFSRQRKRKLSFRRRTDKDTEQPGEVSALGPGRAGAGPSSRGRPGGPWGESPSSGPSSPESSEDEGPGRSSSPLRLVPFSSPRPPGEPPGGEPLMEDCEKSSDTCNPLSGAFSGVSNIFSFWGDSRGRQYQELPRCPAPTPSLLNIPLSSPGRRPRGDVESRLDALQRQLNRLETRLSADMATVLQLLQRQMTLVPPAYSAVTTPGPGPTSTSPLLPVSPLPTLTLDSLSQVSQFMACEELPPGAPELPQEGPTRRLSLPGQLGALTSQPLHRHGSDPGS
protocol.details: primary screen, population patch clamp on CHO cells stably expressing hERG; higher = less effect of the substance
Out of some 310,000 compounds screened, about 14,000 (4.5%) showed an effect of 50% or more. Effects have a minus sign here. The entries come from a sample that favours strong results as a whole.
property.label: hERG current change (%, negative = inhibition) at 10uM (%)

[
  {
    "molecule": "CSCC(=O)N1CCC(n2nccc2NC(=O)CCCc2ccccc2)CC1",
    "target": "human ether-à-go-go-related gene (hERG) potassium channel (human, UniProt Q12809)",
    "unit.label": "%",
    "reading": -17.6
  },
  {
    "molecule": "COc1ccccc1C(=O)N1CCN(CCNC(=O)C(=O)Nc2ccc(Br)c(C)c2)CC1",
    "target": "human ether-à-go-go-related gene (hERG) potassium channel (human, UniProt Q12809)",
    "unit.label": "%",
    "reading": -48.8
  },
  {
    "molecule": "CCOc1ccc(CN2CCC(n3nccc3NC(=O)CCCc3ccccc3)CC2)cc1",
    "target": "human ether-à-go-go-related gene (hERG) potassium channel (human, UniProt Q12809)",
    "unit.label": "%",
    "reading": -78.2
  },
  {
    "molecule": "O=C(CN1CCN(C(=O)c2ccccc2F)CC1)Nc1ccc(Br)cc1",
    "target": "human ether-à-go-go-related gene (hERG) potassium channel (human, UniProt Q12809)",
    "unit.label": "%",
    "reading": -64.6
  },
  {
    "molecule": "COc1ccc(NC(=O)C(=O)NCCN2CCN(C(=O)c3cccs3)CC2)cc1",
    "target": "human ether-à-go-go-related gene (hERG) potassium channel (human, UniProt Q12809)",
    "unit.label": "%",
    "reading": -45.1
  },
  {
    "molecule": "CCn1nc(C)c(CN2CCC(n3nccc3NC(=O)Cc3ccccc3)CC2)c1C",
    "target": "human ether-à-go-go-related gene (hERG) potassium channel (human, UniProt Q12809)",
    "unit.label": "%",
    "reading": 6.57
  },
  {
    "molecule": "CSCCC(=O)N1CCC(n2nccc2NC(=O)CCCc2ccccc2)CC1",
    "target": "human ether-à-go-go-related gene (hERG) potassium channel (human, UniProt Q12809)",
    "unit.label": "%",
    "reading": -5.8
  },
  {
    "molecule": "CCn1cc(CN2CCC(n3nccc3NC(=O)CCCc3ccccc3)CC2)cn1",
    "target": "human ether-à-go-go-related gene (hERG) potassium channel (human, UniProt Q12809)",
    "unit.label": "%",
    "reading": -27.3
  },
  {
    "molecule": "CCn1nc(C)c(CN2CCC(n3nccc3NC(=O)CCCc3ccccc3)CC2)c1C",
    "target": "human ether-à-go-go-related gene (hERG) potassium channel (human, UniProt Q12809)",
    "unit.label": "%",
    "reading": -60.1
  },
  {
    "molecule": "CCOc1ncccc1C(=O)OCc1csc(CC(=O)Nc2ccccc2C)n1",
    "target": "human ether-à-go-go-related gene (hERG) potassium channel (human, UniProt Q12809)",
    "unit.label": "%",
    "reading": 0.199
  },
  {
    "molecule": "C/C=C(\\C)CN1CCC(n2nccc2NC(=O)CCCc2ccccc2)CC1",
    "target": "human ether-à-go-go-related gene (hERG) potassium channel (human, UniProt Q12809)",
    "unit.label": "%",
    "reading": -62.9
  },
  {
    "molecule": "O=C1CCC(=O)N1OCCCOc1ccccc1",
    "target": "human ether-à-go-go-related gene (hERG) potassium channel (human, UniProt Q12809)",
    "unit.label": "%",
    "reading": -2.09
  },
  {
    "molecule": "O=C(CN1CCN(C(=O)c2cccs2)CC1)Nc1ccc(Br)cc1",
    "target": "human ether-à-go-go-related gene (hERG) potassium channel (human, UniProt Q12809)",
    "unit.label": "%",
    "reading": -71.8
  },
  {
    "molecule": "C/C=C(\\C)CN1CCC(n2nccc2NC(=O)CCOc2ccccc2)CC1",
    "target": "human ether-à-go-go-related gene (hERG) potassium channel (human, UniProt Q12809)",
    "unit.label": "%",
    "reading": -31.5
  },
  {
    "molecule": "COc1cc(NC(=O)COc2cccc(C)c2C)ccc1NC(=O)c1ccco1",
    "target": "human ether-à-go-go-related gene (hERG) potassium channel (human, UniProt Q12809)",
    "unit.label": "%",
    "reading": 13
  },
  {
    "molecule": "COc1ccc(CC(NC(C)=O)C(=O)NC2CCN(S(=O)(=O)c3ccccc3)CC2)c(OC)c1 (centres unmarked)",
    "target": "human ether-à-go-go-related gene (hERG) potassium channel (human, UniProt Q12809)",
    "unit.label": "%",
    "reading": 20.5
  },
  {
    "molecule": "CCn1cc(CN2CCC(n3nccc3NC(=O)CCCc3ccccc3)CC2)c(C)n1",
    "target": "human ether-à-go-go-related gene (hERG) potassium channel (human, UniProt Q12809)",
    "unit.label": "%",
    "reading": -28.4
  },
  {
    "molecule": "Cc1cc([N+](=O)[O-])nn1CC(=O)N/N=C/c1ccccc1F",
    "target": "human ether-à-go-go-related gene (hERG) potassium channel (human, UniProt Q12809)",
    "unit.label": "%",
    "reading": -5.15
  },
  {
    "molecule": "CC(C)(C)NC(=O)C(Cc1ccccc1)NS(=O)(=O)c1cccc2nsnc12 (centres unmarked)",
    "target": "human ether-à-go-go-related gene (hERG) potassium channel (human, UniProt Q12809)",
    "unit.label": "%",
    "reading": -1.39
  },
  {
    "molecule": "CCC(=O)Nc1ccc(N2CCN(C(=O)c3cccs3)CC2)cc1",
    "target": "human ether-à-go-go-related gene (hERG) potassium channel (human, UniProt Q12809)",
    "unit.label": "%",
    "reading": -7.15
  }
]
